Target: UPR counterscreen luciferase reporter, luminescence
Experiment: luciferase reporter activation, UPR counterscreen line – cell-based, luminescence, counter-screen for adaptive UPR activator project, dose response (AID 489027)
The source made the active and inactive calls. The rule behind the calls is not given here.
I would appreciate it if you answered using one of these outcomes: true (active), false (inactive)

Below are worked cases with known answers.
# compound, classification
rows = [
    ("COc1ccc2c(c1)NC(c1cc(Cl)cc(Cl)c1O)c1cccn1-2 (stereo not given)", "false"),
    ("CCOC(=O)c1nnc(-c2ccccc2)nc1Sc1ccccc1Cl", "true"),
    ("Cc1ccc2c(c1)C(=O)C(=O)N2Cc1ccc(Br)cc1", "false"),
    ("N#CCC(=O)N/N=C/c1cn(Cc2cccc3ccccc23)c2ccccc12", "false"),
]

Which outcome was assigned to COc1ccc(NC(=O)C(=O)N/N=C\c2ccc(CNC(=O)C(=O)Nc3ccc(C)c(C)c3)o2)c(OC)c1 in this test?
true

# outcome recorded in this test, key = O=[N+]([O-])c1cc(-c2ccc(/C=N/c3nc4ccccn4c3-c3ccco3)o2)ccc1Cl
false

Call for entry Oc1cccc(-c2nc3c4c(ncn3n2)-c2ccccc2CC42CCCC2)c1 :
true

// provenance: PubChem BioAssay AID489027
